species on record: Homo sapiens; test: Selectivity ratio of Ke for human mu opioid receptor to Ke for human kappa opioid receptor
reported-endpoint: Ratio Ke

Study these solved cases before continuing.
COc1cc(Oc2cccc(C)c2)ccc1C(=O)N[C@H](CN1CCN(c2cccc(O)c2)[C@@H](C)C1)C(C)C: 38
COc1ccccc1Oc1ccc(C(=O)N[C@H](CN2CCN(c3cccc(O)c3)[C@@H](C)C2)C(C)C)cc1: 23
Cc1cc(C)cc(Oc2ccc(C(=O)N[C@H](CN3CCN(c4cccc(O)c4)[C@@H](C)C3)C(C)C)cc2)c1: 26

Kindly consider the entry below.
Q: Sample "CC(C)[C@@H](CN1CCN(c2cccc(O)c2)[C@@H](C)C1)NC(=O)c1ccc(Oc2ccccc2O)cc1" — what was its Ratio Ke?
Result: 146
